measured_target: Transporter (Rattus norvegicus)
Sequence (Q63380 whole entry): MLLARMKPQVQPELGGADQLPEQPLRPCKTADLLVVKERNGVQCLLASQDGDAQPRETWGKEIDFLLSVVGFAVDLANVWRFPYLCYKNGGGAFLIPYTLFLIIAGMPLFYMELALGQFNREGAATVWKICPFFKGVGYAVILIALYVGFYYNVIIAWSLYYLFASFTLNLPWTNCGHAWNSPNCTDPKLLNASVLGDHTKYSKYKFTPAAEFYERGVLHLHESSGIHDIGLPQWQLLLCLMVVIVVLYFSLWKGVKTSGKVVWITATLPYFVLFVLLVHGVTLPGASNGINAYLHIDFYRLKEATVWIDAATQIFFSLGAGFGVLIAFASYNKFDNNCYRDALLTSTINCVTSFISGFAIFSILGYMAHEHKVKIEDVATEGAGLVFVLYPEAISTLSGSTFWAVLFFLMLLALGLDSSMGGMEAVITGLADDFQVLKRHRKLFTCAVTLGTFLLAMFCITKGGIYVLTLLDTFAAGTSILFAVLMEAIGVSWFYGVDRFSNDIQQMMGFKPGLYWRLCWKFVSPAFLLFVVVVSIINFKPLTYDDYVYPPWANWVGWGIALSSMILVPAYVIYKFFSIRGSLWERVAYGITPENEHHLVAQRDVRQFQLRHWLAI
measurement_name: pKi
The quantity pKi is defined as the negative base-10 logarithm of the molar concentration.

Solved entries (count: 3):
# molecular_string, recorded_measurement
measured = [
    ("O=C(OCc1ccc(Cl)c(Cl)c1)C1(c2ccc3ccccc3c2)CCNCC1", 4.78),
    ("O=C(OCc1ccc(C(F)(F)F)cc1)C1(c2ccc(Cl)c(Cl)c2)CCNCC1", 5.10),
    ("O=C(OCc1ccc(Cl)c(Cl)c1)C1(c2ccc(I)cc2)CCNCC1", 5.22),
]

Need pKi of CN1CCC(C(=O)OCc2ccc([N+](=O)[O-])cc2)(c2ccc(Cl)c(Cl)c2)CC1 , thanks.
6.48

O=C(OCc1ccc(Cl)c(Cl)c1)C1(c2ccc(Cl)c(Cl)c2)CCNCC1 , same question.
4.92

O=C(OCc1ccc([N+](=O)[O-])cc1)C1(c2ccc(I)cc2)CCNCC1 , same question.
5.68

COc1ccc(COC(=O)C2(c3ccc4ccccc4c3)CCNCC2)cc1 , same question.
5.63

COc1ccc(COC(=O)C2(c3ccc(Cl)c(Cl)c3)CCN(C)CC2)cc1 , same question.
6.52

CCOC(=O)C1(c2ccc3ccccc3c2)CCN(C)CC1 , same question.
4.15

COc1ccc(COC(=O)C2(c3ccc(Cl)c(Cl)c3)CCNCC2)cc1 , same question.
5.50

Cited source: ChEMBL document CHEMBL1287706
